Origin of measurements: patent US20090099217A1

System: human β-Secretase (Homo sapiens) | Read-out: IC50
Sequence (P56817 22-460): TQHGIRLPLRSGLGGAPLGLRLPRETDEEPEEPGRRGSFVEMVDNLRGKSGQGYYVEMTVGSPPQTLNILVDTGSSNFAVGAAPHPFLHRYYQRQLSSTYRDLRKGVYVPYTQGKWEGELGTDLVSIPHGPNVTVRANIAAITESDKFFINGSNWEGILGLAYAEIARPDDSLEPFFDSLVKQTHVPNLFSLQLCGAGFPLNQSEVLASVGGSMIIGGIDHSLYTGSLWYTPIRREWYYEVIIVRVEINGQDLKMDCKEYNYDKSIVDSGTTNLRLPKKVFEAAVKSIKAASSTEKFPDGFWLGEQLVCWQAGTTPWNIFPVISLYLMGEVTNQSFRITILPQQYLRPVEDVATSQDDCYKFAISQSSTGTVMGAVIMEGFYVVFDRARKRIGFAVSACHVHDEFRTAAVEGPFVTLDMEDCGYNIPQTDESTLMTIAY
Structures can show the parent of a compound that is named as a salt.
reportedMetric: IC50 (nM)

                                   molecule  valueunits  experimentalresult
0  CN1C(=O)CC(C)(CCc2cccc(-c3ccnc(Cl)c3)c2)N=C1N (centres unmarked) [Example 20, hydrochloride]          nM                 114
1  COc1cncc(-c2cccc(C3(C)CC(=O)N(C)C(N)=N3)c2)c1 (centres unmarked) [Example 21, hydrochloride]          nM                 316
